measurementTarget: Induced myeloid leukemia cell differentiation protein Mcl-1 (Homo sapiens) (UniProt Q07820)
Sequence (Q07820 whole entry, looked up): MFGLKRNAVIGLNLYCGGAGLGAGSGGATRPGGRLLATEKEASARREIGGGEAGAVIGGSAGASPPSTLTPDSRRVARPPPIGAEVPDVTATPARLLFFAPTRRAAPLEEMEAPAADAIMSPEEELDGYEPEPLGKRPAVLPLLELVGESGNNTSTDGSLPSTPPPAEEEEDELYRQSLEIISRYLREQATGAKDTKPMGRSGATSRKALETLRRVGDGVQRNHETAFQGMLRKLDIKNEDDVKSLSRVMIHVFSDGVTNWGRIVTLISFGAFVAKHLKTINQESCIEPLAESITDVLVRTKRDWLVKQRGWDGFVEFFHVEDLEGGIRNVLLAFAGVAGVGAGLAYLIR
assayRemarks: Mcl-1/Noxa binding inhibitor potency, dose response, biochemical, TR-FRET (AID 1417)
conditionSummary: Mcl-1/Noxa peptide interaction, cell-free TR-FRET (terbium/rhodamine), 2 h; measured here: absolute IC50
measureName: IC50

molecule	measureName	obsValue
O=S(=O)(Nc1cc(Sc2ncn[nH]2)c(O)c2ccccc12)c1ccccc1	IC50	< 400 nM
COc1ccccc1C1=Nc2cccc3cccc(c23)N1	IC50	> 54000 nM
Nc1ccc2c(c1Cl)C(=O)c1ccc(N)c(Cl)c1C2=O	IC50	< 400 nM
CS(=O)(=O)C1=NSC2=NC(=O)/C(=C\c3cccn3-c3ccc(Cl)cc3)C(=N)N21	IC50	3740 nM
COc1ccc(C(=O)Nc2nc3c(s2)Cc2cc(OC)ccc2-3)cc1	IC50	4110 nM
CCN(CC)c1ccc(NC(=O)Nc2ccc(C(C)=O)cc2)cc1	IC50	> 54000 nM
CCN(CC)C(=O)COC(=O)c1cc(-c2ccco2)nc2ccccc12	IC50	< 400 nM
Oc1ccc(/C=N/NC(=S)Nc2cccnc2)c(O)c1O	IC50	< 400 nM
Nc1c(C(=O)NCc2ccco2)sc2nc3c(cc12)C(=O)CCC3	IC50	2340 nM
Oc1ccc(N2CCN(c3ncnc4sc(-c5ccccc5)cc34)CC2)cc1	IC50	1150 nM
Oc1[nH]c2ccccc2c1N=Nc1nc2ccccc2s1	IC50	5010 nM
COc1ccc(C(=O)O)cc1NC(=S)NC(=O)c1ccc(-c2ccc(Cl)cc2)o1	IC50	> 54000 nM
Cc1cc(N=Cc2c(O)ccc3cc(Br)ccc23)no1	IC50	53500 nM
O=C1N=c2ccccc2=C1c1c(O)n(-c2cccc(F)c2)[nH]c1=O	IC50	< 400 nM
O=[N+]([O-])c1ccc2c(c1)N([O-])C1(CCCCC1)[N+]2=O	IC50	< 400 nM
O=C(O)c1ccc(N/N=C/C2=C(N3CCOCC3)C(=C\c3ccccc3)/CC2)cc1	IC50	2020 nM
Cc1ccc2c(c1C)NC(C(=O)O)C1CC=CC21 (configuration not stated)	IC50	1070 nM
CS(=O)(=O)c1ccc2c(c1)SC1=NC(=O)/C(=C/c3ccco3)C(=N)N12	IC50	2190 nM
O=C1NC(=S)N(C2CC2)C(=O)/C1=C/c1ccc2c(c1)CCN2CCCCl	IC50	728 nM
Cc1ccc(S(=O)(=O)/N=C2/C=C(C3C(=O)CC(C)(C)CC3=O)C(=O)c3ccccc32)cc1	IC50	2870 nM
COc1cc2cc3c(N)c(C(=O)Nc4sc(C)c(C)c4C#N)sc3nc2cc1OC	IC50	1070 nM
Oc1nc(Nc2ccc(F)cc2)sc1/C=C1\C=Nc2ccccc21	IC50	4320 nM

---

measurementTarget: Induced myeloid leukemia cell differentiation protein Mcl-1 (Homo sapiens)
assayRemarks: Mcl-1/Noxa binding inhibitor potency, dose response, biochemical, TR-FRET (AID 1417)
conditionSummary: Mcl-1/Noxa peptide interaction, cell-free TR-FRET (terbium/rhodamine), 2 h; measured here: absolute IC50
IC50 for assorted molecules

molecule	unitsLabel	comparisonSymbol	IC50
Cc1cc(=O)oc2cc(OCc3ccc(C(=O)OCC(=O)Nc4ccc(N(C)C)cc4)cc3)ccc12	µM	<	0.4
N=C1/C(=C\c2ccc(-c3ccc(C(=O)O)cc3)o2)C(=O)N=C2SC=C(c3ccccc3)N12	µM	<	0.4
COc1cc(/C=N/Nc2nnc3c(n2)[nH]c2ccccc23)ccc1O	µM	=	5.83
Cn1cnnc1SCC(=O)Nc1sc2c(c1C(N)=O)CCC2	µM	=	1.81
CC(C)(C)C1CCc2c(C(=O)NNC(=O)CCC(=O)O)csc2C1 (stereo not drawn)	µM	>	54
Cc1[nH]n(-c2ncc(-c3ccccc3)s2)c(=O)c1C(c1ccc(Cl)cc1)C(C#N)C#N (stereo not drawn)	µM	=	12.2
CN1C=C/C(=C\c2cc[n+](C)c3ccccc23)c2ccccc21	µM	<	0.4
CC1=C(C#N)c2nc(N)c(C#N)c(C)c2/C1=C\c1ccc(-c2ccccc2C(=O)O)o1	µM	=	2.98
O=C1NC(=O)/C(=C\c2ccc(O)cc2O)S1	µM	<	0.4
COc1ccccc1N1C(=O)C(Cl)=C(Nc2ccccc2O)C1=O	µM	>	54
O=C(NC1CCCCC1)c1sc(=S)n2c1[nH]c(=O)c1ccccc12	µM	=	15.9
O=C(COC(=O)Cn1cnc2ccccc21)Nc1ccc2c(c1)C(=O)c1ccccc1C2=O	µM	=	2.59
Nc1cc2c(cc1[N+](=O)[O-])OCO2	µM	=	6.98
Cc1cccc2c1c1ccc3c(c1n2C)C(=O)C=CC3=O	µM	<	0.4
CCC1=NNc2cccc3c(OC)ccc1c23	µM	>	54
O=C(O)Cc1c[nH]c2cccc(O)c12	µM	=	0.81
O=[N+]([O-])c1cc(Cl)cc(/C=N/NC(=S)Nc2cc(S(=O)(=O)N3CCOCC3)ccc2Cl)c1O	µM	<	0.4
O=C1NC(=S)N(c2ccc(F)cc2)C(=O)/C1=C\c1ccoc1	µM	<	0.4
Cc1cc(C)c2c(c1)C1C=CCC1C(c1ccc(S(=O)(=O)N3CCOCC3)cc1)N2 (stereo not drawn)	µM	=	2.05
O=C(O)c1ccc(N/N=C/c2ccc(OC(=O)c3cccc(Cl)c3)cc2)cc1	µM	=	7.31
CCCCn1c(NCc2ccc(N(C)C)cc2)nc2ccccc21	µM	=	1.14
COc1cc2c(cc1O)C[C@H]1NCCc3cc4c(c-2c31)OCO4	µM	=	5.2
O=C1CCCCC1C(=O)c1ccccc1 (stereo not drawn)	µM	>	54
COc1cnn(-c2ccc(Br)cc2)c(=O)c1SCc1ccccc1	µM	>	54
CC1CC(=O)c2c(cc3c(-c4c(O)cc(O)c5c(O)c6c(cc45)OC(C)CC6=O)c(O)cc(O)c3c2O)O1 (stereo not drawn)	µM	<	0.4
O=C(CSc1nc2ccccc2s1)Nc1cc(S(=O)(=O)N2CCOCC2)ccc1O	µM	=	0.722
CN(C)c1ncc(C2=C(Cl)C(=O)C(N3CCCC3)=C(Cl)C2=O)s1	µM	<	0.4
Cc1cc(C)n2c(SC/C(O)=C(\C#N)c3nc4ccccc4[nH]3)nnc2n1	µM	<	0.4
Cc1cccn2c(=O)c3cc(C(=O)NCc4ccco4)c(=N)n(CCc4ccccc4)c3nc12	µM	=	3.15
COC(=O)C1=Nc2ccccc2/C1=C\c1c(O)n(-c2ccc(Br)cc2)c(=O)[nH]c1=O	µM	=	7.49
Cc1ccc(N=Nc2ccc(O)c(/C=N\NC(=O)c3ccc(N)cc3)c2)cc1C	µM	=	2.24
COc1cc(C2Nc3cccc4cccc(c34)N2)cc(OC)c1OC(C)=O	µM	=	2.43
CCN1C(=O)C(C)S/C1=N\S(=O)(=O)c1ccc(F)cc1 (stereo not drawn)	µM	>	54
N=C1CCC(=N)c2c1c(O)c1ccccc1c2O	µM	>	54
O=C(O)c1cccc2c1NC(C(=O)O)C1CC(Sc3ccccc3[N+](=O)[O-])C(Cl)C21 (stereo not drawn)	µM	=	0.881
CC(=O)c1ccc2c(c1)C1C=CCC1C(C(=O)O)N2 (stereo not drawn)	µM	<	0.4
O=[N+]([O-])c1cc(Cl)cc(/C=N/NC(=S)Nc2ccc(S(=O)(=O)N3CCOCC3)cc2)c1O	µM	<	0.4
Cc1ccc(-c2cc(C(=O)OCC(=O)N(C)C3CCS(=O)(=O)C3)c3ccccc3n2)o1 (stereo not drawn)	µM	=	2.98
CCN(CCO)c1nc(SC)nc2c1sc1nc(-c3ccco3)c3c(c12)CCC3	µM	<	0.4
Cc1nc(COC(=O)c2cc(O)c3ccccc3c2O)cs1	µM	<	0.4
Cc1cccc(/N=C/c2sc3ccccc3c2O)n1	µM	=	0.759
NS(=O)(=O)c1ccc(NC(=S)NC(=O)/C=C/c2ccco2)cc1	µM	=	6.75
CN(CCC#N)C(=O)COC(=O)c1c2c(nc3ccccc13)/C(=C/c1ccco1)CC2	µM	=	1.63
